System: glucose-6-phosphate dehydrogenase-6-phosphogluconolactonase (Plasmodium falciparum 3D7)
EXPERIMENT_SUMMARY: inhibition of malaria parasite G6PD (PfGluPho) – biochemical, fluorescence intensity, uHTS, primary screen (AID 504690);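 note: 0% = DMSO wells with substrate and 100% = DMSO wells lacking glucose-6-phosphate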
CONDITIONS_USED: PfGluPho enzyme, NADPH resazurin-diaphorase fluorescence; at 20 µM
Out of some 350,000 compounds screened, about 2,700 (0.77%) were called active.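 Rule for the calls: active = inhibition reaching at least a set limit at 20 µM in the primary screen (cut at about 59% in these data); inactive = the rest.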 This excerpt belongs to a sample that is enriched for actives.
Outcome codes: 1 (yes) for active, 0 (no) for inactive

[
  {
    "COMPOUND": "O=C(CSc1ccc(C(F)(F)F)cc1[N+](=O)[O-])NCCOc1ccccc1",
    "CLASS": "0 (no)"
  },
  {
    "COMPOUND": "CN(C)c1nccc(NCc2ccccc2)c1C#N",
    "CLASS": "0 (no)"
  },
  {
    "COMPOUND": "COc1cc(CNC2CCCC2)c(Br)cc1OCc1ccccc1",
    "CLASS": "0 (no)"
  },
  {
    "COMPOUND": "CCOc1ccc(NS(=O)(=O)c2ccc(Cl)c(C(=O)N(C)Cc3cccnc3)c2)cc1",
    "CLASS": "0 (no)"
  },
  {
    "COMPOUND": "COc1ccc2[nH]c(=O)c(C3c4cc(OC)c(OC)cc4CCN3C(=O)c3ccco3)cc2c1 (stereo not drawn)",
    "CLASS": "0 (no)"
  },
  {
    "COMPOUND": "O=C(Cc1ccsc1)N1CCN(S(=O)(=O)c2cc(C(F)(F)F)cc(C(F)(F)F)c2)CC1",
    "CLASS": "0 (no)"
  },
  {
    "COMPOUND": "CCc1c(C)[nH]c(=S)c(C#N)c1C",
    "CLASS": "1 (yes)"
  },
  {
    "COMPOUND": "CC(C)n1cnc2c(NCc3ccccc3)cc(OCC3CCN(C)CC3)cc21",
    "CLASS": "1 (yes)"
  },
  {
    "COMPOUND": "S=c1[nH]nc(-c2cc(-c3ccccc3)n[nH]2)n1/N=C/c1c2ccccc2cc2ccccc12",
    "CLASS": "1 (yes)"
  },
  {
    "COMPOUND": "COc1cc(C2CC(=O)N3CN(Cc4ccccc4)CSC3=C2C#N)ccc1OCc1ccccc1 (stereo not drawn)",
    "CLASS": "1 (yes)"
  },
  {
    "COMPOUND": "Cc1cc(C(C)(C)C)cc(C)c1N",
    "CLASS": "0 (no)"
  },
  {
    "COMPOUND": "O=C(c1ccc(NS(=O)(=O)c2ccc3[nH]c(=O)[nH]c3c2)cc1)N1CCCCC1",
    "CLASS": "0 (no)"
  },
  {
    "COMPOUND": "O=C(Nc1ccccc1C(=O)N1CCOCC1)C1CCC(=O)N1C1CCCC1 (stereo not drawn)",
    "CLASS": "0 (no)"
  },
  {
    "COMPOUND": "CC1CCC(CN2CCN=C2N(C)C)CC1 (stereo not drawn)",
    "CLASS": "0 (no)"
  },
  {
    "COMPOUND": "CCc1c(C)sc(NC(=O)c2cccs2)c1C(N)=O",
    "CLASS": "1 (yes)"
  },
  {
    "COMPOUND": "COc1ccc2oc(=O)cc(CN3CCOCC3)c2c1",
    "CLASS": "0 (no)"
  },
  {
    "COMPOUND": "CCOc1ccc(NC(=O)c2cc(C)nc3ccccc23)cc1",
    "CLASS": "0 (no)"
  },
  {
    "COMPOUND": "CC1CN(C(=S)Nc2ccc(S(N)(=O)=O)cc2)CC(C)O1 (stereo not drawn)",
    "CLASS": "0 (no)"
  },
  {
    "COMPOUND": "COc1ccc(Cl)cc1NC(=O)CCS(=O)(=O)c1ccc(Br)cc1",
    "CLASS": "0 (no)"
  },
  {
    "COMPOUND": "Cc1cc(-c2n[nH]c(=S)n2/N=C/C(Br)=C/c2ccccc2)n[nH]1",
    "CLASS": "0 (no)"
  },
  {
    "COMPOUND": "CCCCN1CC(C)(C)[C@H](CC(=O)Nc2ccc(Br)cc2)C1=O",
    "CLASS": "0 (no)"
  },
  {
    "COMPOUND": "CCOC(=O)C1CCCN(CCSc2ccc(C)cc2)C1 (stereo not drawn)",
    "CLASS": "0 (no)"
  },
  {
    "COMPOUND": "CCn1nc(NC(=O)c2ccco2)c2cc3ccc(C)cc3nc21",
    "CLASS": "0 (no)"
  },
  {
    "COMPOUND": "CC(=O)Nc1ccc(-c2cn3cccnc3n2)cc1",
    "CLASS": "0 (no)"
  },
  {
    "COMPOUND": "CC(=O)Nc1ccc(NC(=O)CCN2C(=O)C3CC=CCC3C2=O)cc1 (stereo not drawn)",
    "CLASS": "0 (no)"
  },
  {
    "COMPOUND": "O=C1OC(Oc2ccc(Br)cc2)(c2ccccc2)c2ccccc21 (stereo not drawn)",
    "CLASS": "1 (yes)"
  },
  {
    "COMPOUND": "Cc1ccc(-c2cc(N)on2)cc1",
    "CLASS": "0 (no)"
  },
  {
    "COMPOUND": "Cc1cc(Nc2ccc(Br)cc2)nc2ccccc12",
    "CLASS": "1 (yes)"
  },
  {
    "COMPOUND": "O=C(COC(=O)c1ccc([N+](=O)[O-])o1)NC12CC3CC(CC(C3)C1)C2",
    "CLASS": "0 (no)"
  },
  {
    "COMPOUND": "COc1ccc(CCN=C2SCC(=O)N2Cc2ccccc2)cc1OC",
    "CLASS": "0 (no)"
  },
  {
    "COMPOUND": "Fc1ccc(/C=N/n2c(COc3ccccc3)n[nH]c2=S)cc1",
    "CLASS": "0 (no)"
  },
  {
    "COMPOUND": "C=CCn1c(SCC(N)=O)nnc1-c1cc2c(s1)CCC(CC)C2 (stereo not drawn)",
    "CLASS": "0 (no)"
  },
  {
    "COMPOUND": "COCCNC(=O)NC(=O)COC(=O)C1(c2ccc(Cl)cc2)CC1",
    "CLASS": "0 (no)"
  },
  {
    "COMPOUND": "CCc1ccc(NC(=O)C(=O)NNC(=O)c2cccs2)cc1",
    "CLASS": "0 (no)"
  },
  {
    "COMPOUND": "Cc1ccc(-c2cn3cc(C)ccc3n2)cc1",
    "CLASS": "1 (yes)"
  },
  {
    "COMPOUND": "COc1ccc(Cc2n[nH]c(=S)n2NC(=O)Nc2ccc(C)cc2)cc1",
    "CLASS": "0 (no)"
  },
  {
    "COMPOUND": "O=[N+]([O-])c1ccc(COc2ccccc2CN2CCOCC2)cc1",
    "CLASS": "0 (no)"
  },
  {
    "COMPOUND": "COc1ccc(OCc2n[nH]c(=S)n2N)cc1",
    "CLASS": "1 (yes)"
  },
  {
    "COMPOUND": "Fc1cccc(CSc2nnc3ccc(-c4ccncc4)nn23)c1",
    "CLASS": "0 (no)"
  },
  {
    "COMPOUND": "Cc1cc(N)n2nc(-c3ccc(C(C)(C)C)cc3)cc2n1",
    "CLASS": "1 (yes)"
  },
  {
    "COMPOUND": "Oc1c(CN2CCOCC2)ccc(CN2CCOCC2)c1O",
    "CLASS": "1 (yes)"
  },
  {
    "COMPOUND": "CS(=O)(=O)Nc1cccc(-c2cn3ccccc3n2)c1",
    "CLASS": "0 (no)"
  },
  {
    "COMPOUND": "O=C(NCCOc1ccccc1)c1ccccc1F",
    "CLASS": "0 (no)"
  }
]
